molecular target: Voltage-gated potassium channel subunit beta-2 (Rattus norvegicus) (UniProt P62483); experiment: inhibitors of rat Kvbeta2 reductase activity – biochemical, NADPH fluorescence, primary screen (AID 622); details: recombinant KvBeta, 4-cyanobenzaldehyde reduction, at 10 µM, hits give high values;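 further: slope of raw intensity against log time taken from 70 to 1610 s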
Sequence (P62483 whole entry, looked up): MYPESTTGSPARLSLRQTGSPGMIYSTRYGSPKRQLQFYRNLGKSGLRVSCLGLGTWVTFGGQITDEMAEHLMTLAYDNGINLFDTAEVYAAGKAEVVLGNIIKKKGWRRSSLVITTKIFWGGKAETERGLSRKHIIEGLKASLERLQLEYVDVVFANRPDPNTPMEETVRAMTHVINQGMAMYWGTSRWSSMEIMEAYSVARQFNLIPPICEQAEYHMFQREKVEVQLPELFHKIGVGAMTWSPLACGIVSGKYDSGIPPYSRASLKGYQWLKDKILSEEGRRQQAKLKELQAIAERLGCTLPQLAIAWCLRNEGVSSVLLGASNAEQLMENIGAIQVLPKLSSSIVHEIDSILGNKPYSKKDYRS
Each record here notes measured fluorescence slope.
PARAMETER_MEASURED: fluorescence slope

* CCCCc1cc(=O)oc2cc(OCC(=O)N(CC)CC)c(Cl)cc12 | -0.596
* Cc1ccccc1OCCn1c(=O)oc2ccccc21 | -0.353
* Oc1ccc2ccccc2c1CN1CCN(c2ccccc2F)CC1 | -0.574
* Cc1cc(N2CCOCC2)nc2ccc(NC(=O)C3CCC(C)CC3)cc12 (stereo not drawn) | -0.549
* FC(F)(F)c1cc(-c2ccccc2)nc(N2CCCCC2)n1 | -0.578
* COc1ccccc1N1CC(O)=C(c2nc3ccccc3c(=O)[nH]2)C1=N | -0.546
* CCOC(=O)N1CCN(c2cc(=O)n(-c3ccccc3Cl)c(=O)[nH]2)CC1 | -0.581
* O=C(O)Cn1nc2ccccc2n1 | -0.4
* COc1cccc(N2CCN(C(=O)C3C4C=CC5(CN(Cc6ccccc6Cl)C(=O)C35)O4)CC2)c1 (stereo not drawn) | -0.402
* COc1ccc(S(=O)(=O)N2CCN(Cc3ccc(Cl)cc3)CC2)cc1 | -0.458
* COc1cc(C(c2sc3nc(C)nn3c2O)N2CC(C)CC(C)C2)cc(OC)c1OC (stereo not drawn) | -0.505
* CCCOc1ccc(OCCSc2ncccn2)cc1 | -0.454
* CC(C)c1nccn1S(=O)(=O)c1cc(Cl)ccc1Cl | -0.422
* CC1(C)C(c2ccccc2)=NC(c2ccccc2)N1O (stereo not drawn) | -0.428
* COc1cccc(-c2csc(N3CCN(CC(=O)Nc4ccc5c(c4)OCO5)CC3)n2)c1 | -0.622
* Cc1cccc(Cc2nnc(NC(=O)c3cccc(S(=O)(=O)N4CCOCC4)c3)s2)c1 | -0.422
* CCC(C)NC(=O)c1cc(CC(C)C)on1 (stereo not drawn) | -0.61
* CC(Oc1ccc(Cl)cc1Cl)C(=O)Nc1ncccn1 (stereo not drawn) | -0.409
* C=CCn1c(-c2ccccc2)c[nH]c1=S | -0.61
* CCOC(=O)N1CCN(C(=O)CSc2nnc(COc3ccccc3)o2)CC1 | -0.565
* CCOc1ccccc1CN(Cc1ccco1)S(=O)(=O)c1ccc(-n2cnnn2)c(OC)c1 | -0.519
* O=C(CSc1ncnc2nc[nH]c12)c1ccc(Cl)cc1 | -0.5
* Cn1cccc1Cc1nnc(SCC(=O)NCc2ccc(F)cc2)n1-c1ccc(F)cc1 | -0.579

====

molecular target: Voltage-gated potassium channel subunit beta-2 (Rattus norvegicus) (UniProt P62483); experiment: enhancers of rat Kvbeta2 NADPH turnover – biochemical, NADPH fluorescence, primary screen (AID 623); details: Recombinant KvBeta, NADPH fluorescence decrease slope, 10 min; at 10 µM; hits give low values;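 further: fluorescence intensity change per second fitted from 20 to 320 s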
Measured NADPH fluorescence slope values are reported for all entries that follow.
PARAMETER_MEASURED: NADPH fluorescence slope

* O=C(COc1ccccc1Cl)NCc1ccco1 | -3e-05
* O=C(c1ccco1)N1CCN(S(=O)(=O)c2ccc3c(c2)CCN3C(=O)C2CCC2)CC1 | -3.6e-06
* Nc1cc(N)cc(-c2nc3ccccc3o2)c1 | -4.4e-05
* CCOC(=O)C1CCCN(c2c(Nc3ccc(C)c(C)c3)c(=O)c2=O)C1 (centres undefined) | 6.2e-06
* CCOc1ccc(C(=O)CN2CCN(S(=O)(=O)c3ccc(OC)cc3)CC2)cc1 | -4.7e-05
* CCCCCn1c(CCNC(=O)CCC)nc2ccccc21 | -4.5e-05
* CC(NC(=O)COc1ccccc1)C(=O)NC1=NCCS1 (centres undefined) | -2.2e-05
* CC1(C)Cc2ccccc2C(N)=C1C#N | 2e-05
* Cc1nc2scc(-c3cccs3)c2c(=O)n1-n1cccc1 | 1.9e-05
* O=C(c1ccc2nc(N3CCCCC3)sc2c1)N1CCN(c2ccccn2)CC1 | 5.6e-06
* O=C(Nc1ccc(Cc2ccc(NC(=O)N3CCOCC3)cc2)cc1)N1CCOCC1 | -2.3e-05
* COc1cccc(C2C(C(N)=O)=C(C)Nc3nc(-c4ccccc4Cl)nn32)c1 (centres undefined) | -9.2e-05
* Cn1c(-c2ccc(C(C)(C)C)cc2)n[nH]c1=S | -0.000112
* O=C1CCCC(O)=C1C=Nc1ccc2c(c1)oc1ccccc12 | 1.4e-05
* Cc1sc2ncn3ncnc3c2c1C | -3.8e-05
* COC(=O)c1ccccc1NC(=O)N1CCCC1 | -3.7e-06
* CCc1ccc(NC(=O)c2cccnc2)cc1 | -2.2e-05
* O=C(NCCc1ccccn1)c1ccc(COc2ccccc2)o1 | -4.6e-05
* Cc1ccc(C(=O)N2CCCC(c3nc4c(nnn4Cc4ccccc4)c(=O)[nH]3)C2)cc1 (centres undefined) | -5.9e-05
* CCc1nc2scc(-c3ccccc3)c2c(=O)n1N | 6.4e-05
* CC(=O)c1cccc(NS(=O)(=O)c2ccc3c(c2)oc(=O)n3C)c1 | -2.3e-05
* COc1cc(/C=N/n2cnnc2)ccc1OCC(=O)N1CCOCC1 | 7.4e-07
* C/C(N)=C(/C#N)C(=O)CSc1nnc(Nc2c(C)cccc2C)s1 | -5.6e-05
* CCOc1ccc(N(CC(=O)NCc2ccco2)S(=O)(=O)c2ccc(OC)c(OC)c2)cc1 | 4.2e-05
